Biological target: T1, human gpNMB (Human Osteoactivin, His-tag, AcroBioSystems) (human, UniProt Q14956-2 23-486, limits assumed)
T1 sequence (looked up): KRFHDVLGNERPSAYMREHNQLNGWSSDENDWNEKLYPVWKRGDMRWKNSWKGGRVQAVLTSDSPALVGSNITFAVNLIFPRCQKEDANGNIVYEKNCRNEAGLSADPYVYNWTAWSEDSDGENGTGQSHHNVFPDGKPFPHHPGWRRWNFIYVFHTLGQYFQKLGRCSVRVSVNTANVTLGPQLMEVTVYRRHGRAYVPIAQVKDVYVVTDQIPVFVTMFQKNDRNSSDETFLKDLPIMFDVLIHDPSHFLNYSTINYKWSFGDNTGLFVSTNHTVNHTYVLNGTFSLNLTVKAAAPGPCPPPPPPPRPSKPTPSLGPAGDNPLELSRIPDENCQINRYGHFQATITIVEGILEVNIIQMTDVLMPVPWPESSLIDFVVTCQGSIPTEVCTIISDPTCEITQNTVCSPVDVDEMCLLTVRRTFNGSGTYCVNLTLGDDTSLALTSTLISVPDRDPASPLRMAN
Test: SPR Biacore 8K, antibody captured on protein A, gpNMB as analyte
// assign t if kon falls strictly below 8000 M⁻¹ s⁻¹, else f (ties count as f)

The examples below pair each entry with its known result.
[[record]]
binder = "hGPN18-5_H1L2 (antibody, V domains shown, humanized; also called hGPN18-5_VH1+VL2) VH: QVQLVQSGAEVKKPGASVKVSCKASGYTFTTYWMNWVRQAPGQGLEWIGAINPSNDYTEYNQKFKDRVTMTADTSTSTVYMELSSLRSEDTAVYYCGRSYSPDYWGQGTTVTVSS VL: DIQMTQSPSSLSASVGDRVTITCKASQNVDNHVAWFQQKPGKAPKALIYSASYRYSGVPDRFSGSGSGTDFTLTISSLQPEDFATYFCQQYKSYPFTFGGGTKLEIK"
group = "f"

[[record]]
binder = "hGPN18-5_H3L3 (antibody, V domains shown, humanized; also called hGPN18-5_VH3+VL3) VH: QVQLVQSGAEVKKPGASVKVSCKASGYTFTTYWMNWVRQAPGQGLEWIGAINPSNDYTEYNQKFKDRAIMTADKSTSTVYMELSSLRSEDTAVYYCGRSYSPDYWGQGTTVTVSS VL: DIQMTQSPSSLSASVGDRVTITCKASQNVDNHVAWHQQKPGKAPKALIYSASYRYSGVPDRFTGSGSGTDFTLTISSLQPEDFADYFCQQYKSYPFTFGGGTKLEIK"
group = "t"

[[record]]
binder = "hGPN18-5_H0L0 (antibody, V domains shown, chimeric antibody with mouse GPN18-5 variable regions (VH0, VL0); also called hGPN18-5_VH0+VL0; HGPN18-5_VH0+VL0) VH: QVQLQQSGAELAKPGTSVKMSCKASGYTFTTYWMNWVKQRPGQDLEWIGAINPSNDYTEYNQKFKDKAILTADKSSNTAYMQLSSLTSEDSAVYYCGRSYSPDYWGQGTTLTVSS VL: DIVMTQSQKFMSTSVGDRVSVTCKASQNVDNHVAWHQQKPGQSPKALIYSASYRYSGVPDRFTGSGSGTDFTLTIRDVQSEDLADYFCQQYKSYPFTFGSGTELEIK"
group = "f"


Please examine the following record next.
kon under 8000 M⁻¹ s⁻¹? Item: hGPN18-5_H2L2 (antibody, V domains shown, humanized; also called hGPN18-5_VH2+VL2) VH: QVQLVQSGAEVKKPGASVKVSCKASGYTFTTYWMNWVRQAPGQGLEWIGAINPSNDYTEYNQKFKDRATMTADTSTSTVYMELSSLRSEDTAVYYCGRSYSPDYWGQGTTVTVSS VL: DIQMTQSPSSLSASVGDRVTITCKASQNVDNHVAWFQQKPGKAPKALIYSASYRYSGVPDRFSGSGSGTDFTLTISSLQPEDFATYFCQQYKSYPFTFGGGTKLEIK t

These measurements were taken from patent EP4772193A1.
